System: IL1-induced NFκB activity
Assay: HEK-BlueIL1β NFκB Reporter Assay
Assay type: cell-based
Details: nM range, read-out: IC50, inhibition of IL1-induced NFκB activity
READOUT: IC50
Value and unit, in that order.

Prompt: What value of measured IC50 is listed for 74804_25H09A: anti-IL1RAP mAb; VH SEQ ID NO:9, VL SEQ ID NO:25, κ light chain (antibody, V domains shown, 74804_25H09A VH; 74804_25H09A VL) VH: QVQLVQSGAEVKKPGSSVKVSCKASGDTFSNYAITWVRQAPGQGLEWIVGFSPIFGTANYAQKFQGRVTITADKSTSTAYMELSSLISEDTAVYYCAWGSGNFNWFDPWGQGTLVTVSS VL: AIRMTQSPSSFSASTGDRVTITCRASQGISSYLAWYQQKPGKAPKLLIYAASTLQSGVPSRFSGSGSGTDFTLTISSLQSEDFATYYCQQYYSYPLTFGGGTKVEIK ?
Response: 1.77 nM
